- system: D(1A) dopamine receptor (Homo sapiens); note: assay procedure not described here
- Sequence (P21728 whole entry): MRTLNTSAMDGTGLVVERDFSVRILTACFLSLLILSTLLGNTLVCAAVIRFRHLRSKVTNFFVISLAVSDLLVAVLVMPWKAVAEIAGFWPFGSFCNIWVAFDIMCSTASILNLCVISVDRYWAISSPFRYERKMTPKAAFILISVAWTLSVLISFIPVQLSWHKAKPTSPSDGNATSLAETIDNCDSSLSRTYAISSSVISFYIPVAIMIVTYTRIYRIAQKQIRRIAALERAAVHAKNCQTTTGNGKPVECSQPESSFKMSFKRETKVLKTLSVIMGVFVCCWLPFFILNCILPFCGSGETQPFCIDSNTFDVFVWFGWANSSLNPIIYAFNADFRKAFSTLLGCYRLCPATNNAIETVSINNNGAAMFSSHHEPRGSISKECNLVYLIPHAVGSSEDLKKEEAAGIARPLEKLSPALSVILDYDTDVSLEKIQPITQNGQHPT
- Format: functional, cell-based
quantity: AC50

* Clc1ccc(Cn2c(CN3CCCC3)nc3ccccc32)cc1 [CLEMIZOLE] | > 30 µM
* CCOc1cc([C@@H](CS(C)(=O)=O)N2C(=O)c3cccc(NC(C)=O)c3C2=O)ccc1OC | > 30 µM
* S=P(N1CC1)(N1CC1)N1CC1 [THIOTEPA] | > 30 µM
* CC(C)c1cccc(C(C)C)c1O [PROPOFOL] | > 30 µM
* Cc1nnc(SCC2=C(C(=O)O)N3C(=O)[C@@H](NC(=O)Cn4cnnn4)[C@H]3SC2)s1 [CEFAZOLIN] | > 300 µM
* CNCCc1ccc(OC(=O)C(C)C)c(OC(=O)C(C)C)c1 [IBOPAMINE] | > 30 µM
* CC(C)(O/N=C(\C(=O)N[C@@H]1C(=O)N2C(C(=O)[O-])=C(C[n+]3ccccc3)CS[C@H]12)c1csc(N)n1)C(=O)O [CEFTAZIDIME] | > 300 µM

Qu. Given the molecule Cc1onc(-c2c(F)cccc2Cl)c1C(=O)N[C@@H]1C(=O)N2[C@@H]1SC(C)(C)[C@@H]2C(=O)O [FLOXACILLIN] , what is its reported AC50?
Ans. > 30 µM
